For each of the compounds below, state its viability, T/C.
tested on: T-47D spheroids with HUVEC/MSC, viability; assay: Anticancer human tumor T-47D cell line growth inhibition [PI3K]; details: second compound 0.1 µM; first compound 0.01 µM; stronger effect = lower value;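 also: spheroids exposed to agents for seven days before reading; percent of DMSO vehicle control luminescence so 100% = untreated growth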

Input line: Dear colleague, I am looking for the recorded viability, T/C of the following compound: CCN1CCN(Cc2ccc(Nc3ncc(F)c(-c4cc(F)c5nc(C)n(C(C)C)c5c4)n3)nc2)CC1 + Cc1nc(NC(=O)N2CCCC2C(N)=O)sc1-c1ccnc(C(C)(C)C(F)(F)F)c1
Output line: 73.7%

Input line: Dear colleague, I am looking for the recorded viability, T/C of the following compound: Cn1ncnc1[C@H]1c2n[nH]c(=O)c3cc(F)cc(c23)N[C@@H]1c1ccc(F)cc1 + COc1c(OCCCN2CCOCC2)ccc2c3n(c(=NC(=O)c4cnc(N)nc4)nc12)CCN3
Output line: 34.1%

Input line: // returns reported viability, T/C for input Cn1ncnc1[C@H]1c2n[nH]c(=O)c3cc(F)cc(c23)N[C@@H]1c1ccc(F)cc1 + CC(Nc1ccc2c(c1)OCCn1cc(N3C(=O)OCC3C(F)F)nc1-2)C(N)=O
Output line: 81.6%

Input line: Look at this compound and give its reported viability, T/C. CC(C)n1nc(-c2ccc3oc(N)nc3c2)c2c(N)ncnc21 + CC(Nc1ccc2c(c1)OCCn1cc(N3C(=O)OCC3C(F)F)nc1-2)C(N)=O
Output line: 71.1%

Input line: Which viability, T/C value belongs to CC(C)n1nc(-c2ccc3oc(N)nc3c2)c2c(N)ncnc21 + COc1c(OCCCN2CCOCC2)ccc2c3n(c(=NC(=O)c4cnc(N)nc4)nc12)CCN3 ?
Output line: 23.6%

Input line: Requested field: viability, T/C. Item: CC(C)n1nc(-c2ccc3oc(N)nc3c2)c2c(N)ncnc21 + CC(Nc1ncnc2nc[nH]c12)c1cc2cccc(Cl)c2c(=O)n1-c1ccccc1
Output line: 92.8%
